- measurement.description: soluble fraction after stress (log2 fold change); higher = more stays soluble; pooled small domains, quantitative proteomics
- run.parameters: stress: 50 degC
just bin them by soluble fraction (log2): small value = under -0.4, mid value = from -0.4 up to -0.06, large value = -0.06 and over

HMGAISGEQREFYTVFRGHLNSHVGEFKVEDIENLLMKAKTEVPDLLEEEFLKMGEAILNRYRN ... mid value
HMAVKYTKDDFLYTEKPYEAIYDYKNDPFMHNLKIEQMAQQAAEVGVKTFKGLYKNYVKMREMQRGANV ... large value
HMDLEMLEVEDTIKDLLSQHQKINAIKYYRNYMSEQLNVDMGLRQAKDTIDAIGRGATVDLSVGY ... mid value
HMPAFGALTLRQRDLVELIAQGLDNSQIAARLGLAEKTVRNHITMIFNKLEMENRSQVIVRARESGFGAVR ... small value
HMKVKIFNGMKLVTNSTGLTVDGKPAALDESNADAKTYSQGLYVFIVYQSGKIAVMQDGKFLGYA ... small value
HMDEWDPAILYVGLDYEDAAQIATRLATSGVPYRLSPDGTMITVPDDQVNNMRLTLAGEGFPH ... mid value
HMRPEVTEHLKTADAILHGGDINRQSIVDELRQYAPLYIVRGNNDKDWAEAIPHDLTVTLGGVTFFMVHNR ... large value
HMVQDDDPNSVAKFIDQVIESNPEQVEQYRSGKEKVFNFFLGQTMRLSKGKANPDLVSELLKEKLS ... large value
HMIEYYDDEELDVFKGRQSDNYTNKEIEQFAEVLHTMRQDEVKGWNRSLILRSINLPDSLKDEVIMLI ... small value
HMEVLSKRGSTGTEVINIQKKLKNWGYYTGSVDGIYGKLTEEAVRYFQRTNGLTVDGIAGKNTLAAMGIA ... mid value
HMIDVNLVQRGKTLHLRRRVPMRYSSVERREYVSISLKTDSEAEARRKAGAAWDQMIAAWEARLA ... mid value
HMELEENTERVLNILIENDIISENDIAEKLEVKINGARKALYKLKEVGFVEYTKERDEEKKWWYIYFWKLN ... large value
HMKAPDSQYKPLTDFQTDASFQKLDAYLRNRYPAMLANAVVYDVLRTPDAISYRVNYQVDNKMITINAAVT ... mid value
HMATLAVPNLMRLSQGEAMALIRLSGLSIGNVSIDSSMGSPRVIRQEPQASGGMLVLTQGDQVHLWLEGP ... small value
HMTGKLGKIILQPKQTVYGITKKYQISESELRRLNPQLDSHLKIGDEVILPAENIKKFGGNQPVAVS ... large value
HMERPLFVIEDYRRFAGNEVEISLKKGGKKIRGVIAGTPSDAEVTVRTQGGETTVPLGDVKRAHLVYV ... large value
HMSADDSDDRKGIDAWLTQLLANGSVKATEVYSAADAAGYSKDQAKRAKRRLAIEAVREAMDGPWFWRLD ... small value
